assayProtocol: Aqueous solubility
Type: physicochemical
measurementConditions: pH 7.4, aqueous buffer
readoutName: solubility (µg/mL)
// return numeric value only (unit: µg/mL, not printed)

Record `Cn1c(Cn2ccc(C(F)(F)F)c(Oc3cccc4cnccc34)c2=O)n[nH]c1=O` , field solubility: 53

---

testedSystem: CYP2C9 (Homo sapiens, UniProt P11712)
Sequence (P11712 whole entry): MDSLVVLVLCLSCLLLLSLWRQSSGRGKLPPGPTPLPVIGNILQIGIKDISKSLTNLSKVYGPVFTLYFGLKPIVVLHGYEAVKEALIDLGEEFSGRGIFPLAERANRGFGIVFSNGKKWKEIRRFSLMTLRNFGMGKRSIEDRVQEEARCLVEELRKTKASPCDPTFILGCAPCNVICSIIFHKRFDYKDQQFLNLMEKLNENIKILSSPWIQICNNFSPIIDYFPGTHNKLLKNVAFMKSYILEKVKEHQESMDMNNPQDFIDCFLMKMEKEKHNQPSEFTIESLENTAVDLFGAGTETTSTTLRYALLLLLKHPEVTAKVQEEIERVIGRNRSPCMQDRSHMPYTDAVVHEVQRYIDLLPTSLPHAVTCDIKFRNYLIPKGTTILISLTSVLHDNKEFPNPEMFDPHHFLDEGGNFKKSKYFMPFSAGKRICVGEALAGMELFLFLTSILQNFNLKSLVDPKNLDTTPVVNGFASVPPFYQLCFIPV
readoutName: pIC50
A value of pIC50 is the negative decimal logarithm of a concentration given in moles per litre.

Query `Cn1c(Cn2ccc(C(F)(F)F)c(Oc3cccc4cnccc34)c2=O)n[nH]c1=O` on CYP2C9 (Homo sapiens, UniProt P11712); pIC50 returned: 4.71

---

testedSystem: WT HIV-1 RT (Human immunodeficiency virus type 1 group M subtype B)
assayProtocol: Inhibition of WT HIV-1 RT
Assay type: biochemical
Property: IC50; scope: individual molecules
// return numeric value only (unit: nM, not printed)

Please review the following examples before continuing.
>  <molecule>
Cn1c(Cn2ccc(C(F)(F)F)c(Oc3cc(Cl)cc(C#N)c3)c2=O)n[nH]c1=O [DOR, doravirine, reference compound]

>  <IC50 / nM>
44

$$$$
>  <molecule>
Cn1c(Cn2ccc(C(F)(F)F)c(Oc3cncc4ccccc34)c2=O)n[nH]c1=O

>  <IC50 / nM>
4380

$$$$

Record `Cc1cncc(Oc2c(C(F)(F)F)ccn(Cc3n[nH]c(=O)n3C)c2=O)c1` , field IC50: 1030

Record `Cn1c(Cn2ccc(C(F)(F)F)c(Oc3cccc4cnccc34)c2=O)n[nH]c1=O` , field IC50: 120

Record `Cn1c(Cn2ccc(C(F)(F)F)c(Oc3cncc(Br)c3)c2=O)n[nH]c1=O` , field IC50: 740

Record `Cn1c(Cn2ccc(C(F)(F)F)c(Oc3cncc(Cl)c3)c2=O)n[nH]c1=O` , field IC50: 1140

---

assayProtocol: PK study in Sprague-Dawley rats
Format: in vivo
measurementConditions: rat, plasma, iv, 1 mg/kg, MRT0‒∞, 1.0 mg/kg (i.v.)
readoutName: MRT (min)
// return numeric value only (unit: min, not printed)

Record `Cn1c(Cn2ccc(C(F)(F)F)c(Oc3cccc4cnccc34)c2=O)n[nH]c1=O` , field MRT: 22

---

testedSystem: CYP2C19 (Homo sapiens)
Sequence (P33261 whole entry): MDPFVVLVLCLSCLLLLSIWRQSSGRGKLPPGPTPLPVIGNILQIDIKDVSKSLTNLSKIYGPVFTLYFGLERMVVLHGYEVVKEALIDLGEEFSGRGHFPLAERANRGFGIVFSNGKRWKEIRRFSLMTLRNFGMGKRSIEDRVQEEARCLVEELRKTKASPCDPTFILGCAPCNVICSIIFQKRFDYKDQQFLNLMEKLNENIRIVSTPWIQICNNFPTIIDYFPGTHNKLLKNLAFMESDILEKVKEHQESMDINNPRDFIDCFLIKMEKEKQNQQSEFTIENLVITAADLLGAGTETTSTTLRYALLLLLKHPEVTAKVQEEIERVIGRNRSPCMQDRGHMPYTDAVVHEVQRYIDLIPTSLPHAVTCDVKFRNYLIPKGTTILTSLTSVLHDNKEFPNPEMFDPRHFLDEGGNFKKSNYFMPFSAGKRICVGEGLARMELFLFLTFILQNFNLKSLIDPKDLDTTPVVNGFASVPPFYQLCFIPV
readoutName: IC50 (µM)
// return numeric value only (unit: µM, not printed)

Query Cn1c(Cn2ccc(C(F)(F)F)c(Oc3cccc4cnccc34)c2=O)n[nH]c1=O [7w] on CYP2C19 (Homo sapiens); IC50 returned: 26.8

---

Tested on: HIV-1 mutant L100I
assayProtocol: Anti-HIV-1 efficacy against mutant L100I in MT-4 cells
Format: cell-based
measurementConditions: Human immunodeficiency virus 1, MT4, read-out: EC50 L100I
Lab note: compare EC50 with 600 nM, writing 1 if less and 0 if equal or more.

>  <compound>
Cn1c(Cn2ccc(C(F)(F)F)c(Oc3cncc4ccccc34)c2=O)n[nH]c1=O

>  <discreteLabel>
1

$$$$
>  <compound>
Cc1cc(C#N)cc(C)c1Oc1nc(Nc2ccc(C#N)cc2)nc(N)c1Br [ETR, etravirine, reference compound]

>  <discreteLabel>
1

$$$$
>  <compound>
Cn1c(Cn2ccc(C(F)(F)F)c(Oc3cccc4cnccc34)c2=O)n[nH]c1=O

>  <discreteLabel>
1

$$$$
>  <compound>
Cn1c(Cn2ccc(C(F)(F)F)c(Oc3cc(Cl)cc(C#N)c3)c2=O)n[nH]c1=O [DOR, doravirine, reference compound]

>  <discreteLabel>
1

$$$$
>  <compound>
Cn1c(Cn2ccc(C(F)(F)F)c(Oc3cncc(Cl)c3)c2=O)n[nH]c1=O

>  <discreteLabel>
0

$$$$

Query block: In the record for `Cn1c(Cn2ccc(C(F)(F)F)c(Oc3cncc(Br)c3)c2=O)n[nH]c1=O` , is EC50 less than 600 nM?
Result block: 0

Query block: In the record for `Cc1cncc(Oc2c(C(F)(F)F)ccn(Cc3n[nH]c(=O)n3C)c2=O)c1` , is EC50 less than 600 nM?
Result block: 1

---

testedSystem: CYP2D6 (Homo sapiens)
Sequence (P10635 whole entry): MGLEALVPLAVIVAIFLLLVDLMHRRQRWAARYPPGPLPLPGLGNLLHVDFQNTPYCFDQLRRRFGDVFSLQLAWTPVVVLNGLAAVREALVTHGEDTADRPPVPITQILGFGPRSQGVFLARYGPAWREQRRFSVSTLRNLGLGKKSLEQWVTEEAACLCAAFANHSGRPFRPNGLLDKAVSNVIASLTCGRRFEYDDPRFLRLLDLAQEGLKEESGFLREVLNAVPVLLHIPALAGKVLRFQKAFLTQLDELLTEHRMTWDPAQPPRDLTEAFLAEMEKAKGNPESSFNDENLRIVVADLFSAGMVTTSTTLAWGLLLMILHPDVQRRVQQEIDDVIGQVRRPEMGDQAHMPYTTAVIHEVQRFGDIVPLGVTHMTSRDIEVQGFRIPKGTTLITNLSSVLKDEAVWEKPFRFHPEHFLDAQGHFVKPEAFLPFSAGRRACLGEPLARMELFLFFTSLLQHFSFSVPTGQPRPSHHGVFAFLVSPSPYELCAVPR
readoutName: IC50 (µM)
// return numeric value only (unit: µM, not printed)

Record COc1ccc2c(c1)[C@]13CCCC[C@@H]1[C@H](C2)N(C)CC3 [Dextromethorphan, reference compound] , field IC50: 0.0482

---

assayProtocol: Cytotoxicity in mock-infected MT-4 cell cultures
Type: cell-based
measurementConditions: human, mock-infected MT-4 cells
Property: CC50; scope: individual compounds

>  <compound>
Cc1ccncc1Oc1c(C(F)(F)F)ccn(Cc2n[nH]c(=O)n2C)c1=O

>  <CC50>
> 328 µM

$$$$
>  <compound>
Cc1ccc(Oc2c(C(F)(F)F)ccn(Cc3n[nH]c(=O)n3C)c2=O)c(C)n1

>  <CC50>
> 250 µM

$$$$
>  <compound>
Cc1cc(Oc2c(C(F)(F)F)ccn(Cc3n[nH]c(=O)n3C)c2=O)cnc1F

>  <CC50>
> 250 µM

$$$$

Record `Cn1c(Cn2ccc(C(F)(F)F)c(Oc3cccc4nccnc34)c2=O)n[nH]c1=O` , field CC50: 220 µM

Record `Cn1c(Cn2ccc(C(F)(F)F)c(Oc3ccc4cnccc4c3)c2=O)n[nH]c1=O` , field CC50: > 299 µM

Record `Cn1c(Cn2ccc(C(F)(F)F)c(Oc3ccc(Cl)nc3)c2=O)n[nH]c1=O` , field CC50: > 311 µM

Record `Cn1c(Cn2ccc(C(F)(F)F)c(Oc3cccnc3Br)c2=O)n[nH]c1=O` , field CC50: 271 µM

Record Cc1cc(C#N)cc(C)c1Oc1nc(Nc2ccc(C#N)cc2)nc(N)c1Br [ETR, etravirine, reference compound] , field CC50: > 4.6 µM

Record `Cn1c(Cn2ccc(C(F)(F)F)c(Oc3cccc4ccncc34)c2=O)n[nH]c1=O` , field CC50: > 299 µM

---

assayProtocol: PK study in Sprague-Dawley rats
Assay type: in vivo
measurementConditions: rat, plasma, po, 5 mg/kg
readoutName: Tmax (min)
// return numeric value only (unit: min, not printed)

Record Cn1c(Cn2ccc(C(F)(F)F)c(Oc3cccc4cnccc34)c2=O)n[nH]c1=O [7w] , field Tmax: 25

---

assayProtocol: PK study in Sprague-Dawley rats
Assay type: in vivo
measurementConditions: rat, plasma, iv, 1 mg/kg, MRT0‒t, 1.0 mg/kg (i.v.)
readoutName: MRT (min)
// return numeric value only (unit: min, not printed)

Record Cn1c(Cn2ccc(C(F)(F)F)c(Oc3cccc4cnccc34)c2=O)n[nH]c1=O [7w] , field MRT: 21.1

---

Property: SI; scope: individual molecules
Tested on: WT HIV-1
assayProtocol: Anti-HIV-1 activity in MT-4 cells infected with HIV-1
Format: cell-based
measurementConditions: selectivity index, the ratio of CC50/EC50, WT HIV-1

Please review the following examples before continuing.
>  <molecule>
Cn1c(Cn2ccc(C(F)(F)F)c(Oc3cnc4ccccc4c3)c2=O)n[nH]c1=O

>  <SI>
>1

$$$$
>  <molecule>
Cc1cc(Oc2c(C(F)(F)F)ccn(Cc3n[nH]c(=O)n3C)c2=O)c2cc(F)c(Cl)cc2n1

>  <SI>
7.92

$$$$
>  <molecule>
Cn1c(Cn2ccc(C(F)(F)F)c(Oc3ccc4ncccc4c3)c2=O)n[nH]c1=O

>  <SI>
>1

$$$$
>  <molecule>
Cc1cc(Oc2c(C(F)(F)F)ccn(Cc3n[nH]c(=O)n3C)c2=O)c2cccc(F)c2n1

>  <SI>
<1

$$$$
>  <molecule>
Cn1c(Cn2ccc(C(F)(F)F)c(Oc3cncc(Br)c3)c2=O)n[nH]c1=O

>  <SI>
>573

$$$$

Record `Cn1c(Cn2ccc(C(F)(F)F)c(Oc3cccnc3Br)c2=O)n[nH]c1=O` , field SI: 61.07

Record `Cn1c(Cn2ccc(C(F)(F)F)c(Oc3ccc4cnccc4c3)c2=O)n[nH]c1=O` , field SI: >27

Record `Cc1cc(Oc2c(C(F)(F)F)ccn(Cc3n[nH]c(=O)n3C)c2=O)cnc1Br` , field SI: >214

Record `Cc1ccc(Oc2c(C(F)(F)F)ccn(Cc3n[nH]c(=O)n3C)c2=O)c(Br)n1` , field SI: <1

---

assayProtocol: PK study in Sprague-Dawley rats
Format: in vivo
measurementConditions: rat, plasma, iv, 1 mg/kg
readoutName: Tmax (min)
// return numeric value only (unit: min, not printed)

Record Cn1c(Cn2ccc(C(F)(F)F)c(Oc3cccc4cnccc34)c2=O)n[nH]c1=O [7w] , field Tmax: 4.98

---

Property: CC50; scope: individual compounds
assayProtocol: Cytotoxicity in mock-infected MT-4 cell cultures
Type: cell-based
measurementConditions: human, mock-infected MT-4 cells
// return numeric value only (unit: µM, not printed)

>  <chemicalSmiles>
Cn1c(Cn2ccc(C(F)(F)F)c(Oc3cccc4ncccc34)c2=O)n[nH]c1=O

>  <CC50 [µM]>
278

$$$$
>  <chemicalSmiles>
Cn1c(Cn2ccc(C(F)(F)F)c(Oc3cccc4cnccc34)c2=O)n[nH]c1=O

>  <CC50 [µM]>
274

$$$$
>  <chemicalSmiles>
Cn1c(Cn2ccc(C(F)(F)F)c(Oc3cc(Cl)c4ncccc4c3)c2=O)n[nH]c1=O

>  <CC50 [µM]>
192

$$$$
>  <chemicalSmiles>
CCc1nc(C)ccc1Oc1c(C(F)(F)F)ccn(Cc2n[nH]c(=O)n2C)c1=O

>  <CC50 [µM]>
299

$$$$
>  <chemicalSmiles>
Cn1c(Cn2ccc(C(F)(F)F)c(Oc3ccc4cccnc4c3Br)c2=O)n[nH]c1=O

>  <CC50 [µM]>
164

$$$$

Attention now turns to another entry.
Record `Cc1cc(Oc2c(C(F)(F)F)ccn(Cc3n[nH]c(=O)n3C)c2=O)c2cc(F)c(Cl)cc2n1` , field CC50: 92.9
